System: Streptococcus pneumoniae
Test: Antibacterial activity against erythromycin-resistant Streptococcus pneumoniae A22072 expressing mef gene by broth microdilution method
Format: functional
parameter measured: MIC (µg/mL)
Write the value in µg/mL as a bare number.

Consider the worked cases shown below.
given smiles	target system	parameter measured	test result
CCCCNC(=O)O[C@@H]1[C@@H](C)N(C)C[C@H](C)C[C@@](C)(O)[C@H](O[C@@H]2O[C@H](C)C[C@H](N(C)C)[C@H]2O)[C@@H](C)[C@H](O[C@H]2C[C@@](C)(OC)[C@@H](OC(=O)NCc3ccc(OC)cc3)[C@H](C)O2)[C@@H](C)C(=O)O[C@H](CC)[C@@]1(C)O	Streptococcus pneumoniae	MIC	1
CC[C@H]1OC(=O)[C@H](C)[C@@H](O[C@H]2C[C@@](C)(OC)[C@@H](OC(=O)NCCc3ccccc3Cl)[C@H](C)O2)[C@H](C)[C@@H](O[C@@H]2O[C@H](C)C[C@H](N(C)C)[C@H]2O)[C@](C)(O)C[C@@H](C)CN(C)[C@H](C)[C@H]2OC(=O)O[C@@]21C	Streptococcus pneumoniae	MIC	0.25

Which MIC value is on record for CC[C@H]1OC(=O)[C@H](C)[C@@H](O[C@H]2C[C@@](C)(OC)[C@@H](OC(=O)NCCc3ccc(O)cc3)[C@H](C)O2)[C@H](C)[C@@H](O[C@@H]2O[C@H](C)C[C@H](N(C)C)[C@H]2O)[C@](C)(O)C[C@@H](C)CN(C)[C@H](C)[C@@H](OC(=O)NCc2ccccc2)[C@]1(C)O ?
0.12

Okay, and CC[C@H]1OC(=O)[C@H](C)[C@@H](O[C@H]2C[C@@](C)(OC)[C@@H](OC(=O)NCCc3ccccc3Cl)[C@H](C)O2)[C@H](C)[C@@H](O[C@@H]2O[C@H](C)C[C@H](N(C)C)[C@H]2O)[C@](C)(O)C[C@@H](C)CN(C)[C@H](C)[C@@H](OC(=O)NCc2ccc(F)cc2)[C@]1(C)O ?
0.25

Okay, and CC[C@H]1OC(=O)[C@H](C)[C@@H](O[C@H]2C[C@@](C)(OC)[C@@H](O)[C@H](C)O2)[C@H](C)[C@@H](O[C@@H]2O[C@H](C)C[C@H](N(C)C)[C@H]2O)[C@](C)(O)C[C@@H](C)CN(C)[C@H](C)[C@@H](O)[C@]1(C)O ?
4

Okay, and CCCCCNC(=O)O[C@@H]1[C@@H](C)N(C)C[C@H](C)C[C@@](C)(O)[C@H](O[C@@H]2O[C@H](C)C[C@H](N(C)C)[C@H]2O)[C@@H](C)[C@H](O[C@H]2C[C@@](C)(OC)[C@@H](OC(=O)NCc3ccc(OC)cc3)[C@H](C)O2)[C@@H](C)C(=O)O[C@H](CC)[C@@]1(C)O ?
1

Okay, and CC[C@H]1OC(=O)[C@H](C)[C@@H](O[C@H]2C[C@@](C)(OC)[C@@H](OC(=O)NCc3ccc(OC)cc3)[C@H](C)O2)[C@H](C)[C@@H](O[C@@H]2O[C@H](C)C[C@H](N(C)C)[C@H]2O)[C@](C)(O)C[C@@H](C)CN(C)[C@H](C)[C@H]2OC(=O)O[C@@]21C ?
0.25

====

Test system: Streptococcus pneumoniae
Assay: Antibacterial activity against erythromycin-resistant Streptococcus pneumoniae A22072 expressing mef gene by broth microdilution method
Assay type: functional
parameter measured: MIC (µg/mL)
Write the value in µg/mL as a bare number.

given smiles	MIC (µg/mL)
CC[C@H]1OC(=O)[C@H](C)[C@@H](O[C@H]2C[C@@](C)(OC)[C@@H](OC(=O)NCc3ccc(F)cc3)[C@H](C)O2)[C@H](C)[C@@H](O[C@@H]2O[C@H](C)C[C@H](N(C)C)[C@H]2O)[C@](C)(O)C[C@@H](C)CN(C)[C@H](C)[C@H]2OC(=O)O[C@@]21C	0.06
CC[C@H]1OC(=O)[C@H](C)[C@@H](O[C@H]2C[C@@](C)(OC)[C@@H](OC(=O)NCc3ccc(F)cc3)[C@H](C)O2)[C@H](C)[C@@H](O[C@@H]2O[C@H](C)C[C@H](N(C)C)[C@H]2O)[C@](C)(O)C[C@@H](C)CN(C)[C@H](C)[C@@H](OC(=O)NCCc2ccccc2)[C@]1(C)O	0.06

// next item, MIC requested
Which MIC value is on record for CCCCNC(=O)O[C@@H]1[C@@H](C)N(C)C[C@H](C)C[C@@](C)(O)[C@H](O[C@@H]2O[C@H](C)C[C@H](N(C)C)[C@H]2O)[C@@H](C)[C@H](O[C@H]2C[C@@](C)(OC)[C@@H](OC(=O)NCCc3ccc(O)cc3)[C@H](C)O2)[C@@H](C)C(=O)O[C@H](CC)[C@@]1(C)O ?
1
